The origin of these recorded values is PubChem BioAssay (EPA / NIEHS).

Experiment: CEETOX_H295R_PROG: CeeTox H295R High-throughput Steroidogenesis Assay for Progesterone (PROG) (AID 2283442)
Conditions: actives raise or lower the signal
Active and inactive are the calls of the source. Rule for the calls: active = hit-call score of the fitted dose curve at least 0.9, where 1 is the maximum; inactive = score below 0.9.
Outcome codes: active, inactive

* CC(CN=Cc1ccccc1O)N=Cc1ccccc1O (stereo unspecified) | inactive
* CC(C)(C)CC(C)(C)c1ccc(OCCOCC[N+](C)(C)Cc2ccccc2)cc1 | inactive
* CC1(C)C(=O)N(Cl)C(=O)N1Br | inactive
* CC=Cc1ccc(OCC)c(O)c1 | active
* CC(C)Nc1nc(N)nc(Cl)n1 | inactive
* Cc1cc(=O)oc2cc(N(C)C)ccc12 | inactive
* CCC(C)c1cc([N+](=O)[O-])cc([N+](=O)[O-])c1OC(=O)OC(C)C (stereo unspecified) | inactive
* CCCCCCCCN1CCCC1=O | inactive
* CCOC(=O)[C@@H](C)Oc1ccc(Oc2nc3ccc(Cl)cc3o2)cc1 | active
* COCCc1ccc(OCC(O)CNC(C)C)cc1 (stereo unspecified) | inactive
* C=C1CC[C@H](O)C/C1=C/C=C1\CCC[C@]2(C)[C@@H]([C@H](C)/C=C/[C@H](C)C(C)C)CC[C@@H]12 | active
